Recorded values, source PubChem BioAssay (Tox21).

- test: qHTS assay to test for compound auto fluorescence at 460 nm (blue) in HepG2 cells (AID 720687)
- condition-set: autofluorescence 405/460 nm, 1 h; series mostly up to 91.3 µM
Activity calls are given as the source filed them. Calls follow the shape of the dose curve; as a rule, active = well fitted curve in the direction sought with a large enough effect in the repeat runs; inconclusive = weak or mixed curves; inactive = flat fitted curve, though single readings scatter.
recorded-metric: outcome

Before answering, review these 4 worked examples.
# compound, result
records = [
    ("CCCCNC(=O)NS(=O)(=O)c1ccc(C)cc1", "inactive"),
    ("Nc1c(N=Nc2ccc(-c3ccc(N=Nc4cc(S(=O)(=O)O)c5ccccc5c4N)cc3)cc2)cc(S(=O)(=O)O)c2ccccc12", "inactive"),
    ("CC/C(=C(\\c1ccccc1)c1ccc(OCCN(C)C)cc1)c1ccccc1", "inactive"),
    ("Cn1c(=O)c2c(ncn2C)n(C)c1=O", "inactive"),
]

What does the data say about its outcome? Entry: CN(C)CCOC(c1ccccc1)c1ccccc1
inactive

Fill in: outcome of C1CCC(C(CC2CCCCN2)C2CCCCC2)CC1 (configuration not stated) is ___
inactive

Item CCCCCCCCCCCC[N+](C)(C)Cc1ccccc1 has what recorded outcome?
inactive
